Values compiled from patent US7012089B2.

Measured melting point accompanies every entry in the list below.
Where a name gives a salt, the structure may show the parent alone.
QUANTITY_MEASURED: melting point

1) c1cc2c3c(c1)c1c(n3CCNCC2)CCCCC1 (as salt: fumarate)    216 to 218 °C
2) Clc1ccc2c3c1C1CCCC1N3CCNCC2 (centres unmarked) (as salt: fumarate)    169 to 170 °C
3) c1cc2c3c(c1)C1CCCCC1N3CCNCC2 (centres unmarked) (as salt: fumarate)    169 to 171 °C
4) CN1CCc2ccc(Cl)c3c4c(n(c23)CC1)CCCC4 (as salt: fumarate)    212 to 214 °C
5) CN1CCc2ccc(F)c3c4c(n(c23)CC1)CCCC4 (as salt: fumarate)    206 to 208 °C
6) CN1CCc2cccc3c2N(CC1)C1CCCCC31 (centres unmarked) (as salt: fumarate)    150 to 153 °C
7) Clc1ccc2c3c(n4c2c1CCNCC4)CCCC3 (as salt: fumarate)    208 to 210 °C
8) CN1CCc2cccc3c2N(CC1)C1CCCC31 (centres unmarked) (as salt: fumarate)    159 to 161 °C
9) c1cc2c3c(c1)[C@H]1CCC[C@H]1N3CCNCC2 (single isomer, unassigned) (as salt: hydrochloride)    > 130 °C
10) Clc1ccc2c3c(n4c2c1CCNCC4)CCC3 (as salt: fumarate)    188 to 190 °C
11) c1cc2c3c(c1)c1c(n3CCNCC2)CCC1 (as salt: fumarate)    180 to 183 °C
12) CN1CCc2ccc(Cl)c3c2N(CC1)C1CCCCC31 (centres unmarked) (as salt: fumarate)    178 to 180 °C
13) CN1CCc2ccc(F)c3c2N(CC1)C1CCCCC31 (centres unmarked) (as salt: fumarate)    168 to 170 °C
14) CN1CCc2c(Cl)ccc3c4c(n(c23)CC1)CCCC4    128 to 130 °C
15) CN1CCc2cccc3c4c(n(c23)CC1)CCSC4    123 to 125 °C
16) CN1CCc2cccc3c2N(CC1)C1CCSCC31 (centres unmarked) (as salt: fumarate)    187 to 189 °C
17) Fc1ccc2c3c1[C@H]1CCCC[C@H]1N3CCNCC2 (single isomer, unassigned) (as salt: fumarate) [Example 32]    > 130 °C

* * *

Counter-ions that a name gives are not always drawn.
Measured melting point accompanies every entry in the list below.
QUANTITY_MEASURED: melting point

1) CN1CCc2ccc(Cl)c3c4c(n(c23)CC1)CCC4 (as salt: fumarate)    209 to 211 °C
2) CN1CCc2cccc3c4c(n(c23)CC1)CCCC4    129 to 131 °C
3) Clc1ccc2c3c1[C@H]1CCCC[C@H]1N3CCNCC2 (single isomer, unassigned) (as salt: fumarate) [Example 43]    168 to 171 °C
4) Fc1ccc2c3c1[C@H]1CCCC[C@H]1N3CCNCC2 (single isomer, unassigned) (as salt: fumarate) [Example 33]    94 to 96 °C

* * *

Structures can show the parent of a compound that is named as a salt.
Measured melting point accompanies every entry in the list below.
QUANTITY_MEASURED: melting point

1) CCN1CCc2c(Cl)ccc3c2N(CC1)C1CCCC31 (stereo not drawn) (as salt: fumarate) [Example 21]    199 to 201 °C
2) Fc1ccc2c3c1c1c(n3CCNCC2)CCC1 (as salt: fumarate) [Example 28]    199 to 200 °C
3) CN1CCc2ccc(F)c3c2N(CC1)C1CCCC31 (stereo not drawn) (as salt: fumarate) [Example 26]    180 to 182 °C
4) Clc1ccc2c3c1c1c(n3CCNCC2)CCCC1 (as salt: fumarate) [Example 39]    199 to 201 °C
5) Fc1ccc2c3c1c1c(n3CCNCC2)CCCC1 (as salt: fumarate) [Example 29]    177 to 179 °C
6) CN1CCc2c(Cl)ccc3c4c(n(c23)CC1)CCCCC4 [Example 14]    132 to 134 °C
7) Clc1ccc2c3c1c1c(n3CCNCC2)CCC1 (as salt: fumarate) [Example 38]    226 to 228 °C
8) CN1CCc2c(Cl)ccc3c4c(n(c23)CC1)CCC4 [Example 12]    138 to 140 °C
9) CN1CCc2c(Cl)ccc3c2N(CC1)C1CCCCCC31 (stereo not drawn) (as salt: fumarate) [Example 16]    190 to 193 °C
10) Clc1ccc2c3c(n4c2c1CCNCC4)CCCCC3 (as salt: fumarate) [Example 19]    208 to 210 °C
11) Fc1ccc2c3c1C1CCCC1N3CCNCC2 (stereo not drawn) (as salt: fumarate) [Example 30]    169 to 170 °C
12) Clc1ccc2c3c1C1CCCCC1N3CCNCC2 (stereo not drawn) (as salt: fumarate) [Example 41]    199 to 200 °C
13) Fc1ccc2c3c1C1CCCCC1N3CCNCC2 (stereo not drawn) (as salt: fumarate) [Example 31]    189 to 190 °C
14) CN1CCc2cccc3c4c(n(c23)CC1)CCC4 [Example 1]    128 to 130 °C
15) c1cc2c3c(c1)c1c(n3CCNCC2)CCCC1 (as salt: fumarate) [Example 6]    174 to 176 °C
16) CCN1CCc2c(Cl)ccc3c2N(CC1)C1CCCCC31 (stereo not drawn) (as salt: fumarate) [Example 23]    184 to 187 °C
17) Clc1ccc2c3c1CCNCCN3C1CCCC21 (stereo not drawn) (as salt: fumarate) [Example 20]    188 to 189 °C
18) CN1CCc2cccc3c4c(n(c23)CC1)CCCCC4 (as salt: fumarate) [Example 9]    190 to 192 °C

* * *

Measured Ki accompanies every entry in the list below.
STUDY_SYSTEM: UniProtKB P28335
ASSAY_PROCEDURE: [125I]DOI binding to membranes of CHO cells expressing the h-5-HT2C receptor
APPLIED_CONDITIONS: 5-HT2c Affinity KI (nM), displacement of [125I]DOI, CHO cell membranes
QUANTITY_MEASURED: Ki (nM)

1) c1cc2c3c(c1)c1c(n3CCNCC2)CCCC1    4
2) Clc1ccc2c3c1C1CCCCC1N3CCNCC2 (stereo not shown)    7.5
3) Clc1ccc2c3c(n4c2c1CCNCC4)CCCC3    83
4) Clc1ccc2c3c1c1c(n3CCNCC2)CCC1    9.3
5) CN1CCc2cccc3c2N(CC1)C1CCCC31 (stereo not shown)    41
6) CN1CCc2ccc(Cl)c3c4c(n(c23)CC1)CCC4    15
7) c1cc2c3c(c1)C1CCCC1N3CCNCC2 (stereo not shown)    31
8) c1cc2c3c(c1)c1c(n3CCNCC2)CCC1    38
9) Fc1ccc2c3c1[C@H]1CCCC[C@H]1N3CCNCC2 (single isomer, unassigned) [Example 33]    1.4
10) CN1CCc2ccc(F)c3c4c(n(c23)CC1)CCCC4    68

* * *

STUDY_SYSTEM: human 5-hydroxytryptamine-2C (h-5-HT2C) receptor (Homo sapiens)
Sequence (P28335 33-458): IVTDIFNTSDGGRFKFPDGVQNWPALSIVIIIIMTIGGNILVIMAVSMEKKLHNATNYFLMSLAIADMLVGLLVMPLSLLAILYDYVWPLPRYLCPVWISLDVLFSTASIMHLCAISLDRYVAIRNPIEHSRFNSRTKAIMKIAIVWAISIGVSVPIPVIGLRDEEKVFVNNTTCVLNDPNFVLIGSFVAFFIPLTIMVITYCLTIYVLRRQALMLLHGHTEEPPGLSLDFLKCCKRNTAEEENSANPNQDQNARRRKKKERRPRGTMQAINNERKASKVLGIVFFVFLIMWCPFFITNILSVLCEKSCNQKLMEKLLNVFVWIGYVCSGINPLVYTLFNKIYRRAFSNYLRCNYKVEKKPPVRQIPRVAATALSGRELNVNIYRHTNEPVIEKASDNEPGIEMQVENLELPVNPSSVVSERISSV
ASSAY_PROCEDURE: [125I]DOI binding to membranes of CHO cells expressing the h-5-HT2C receptor
APPLIED_CONDITIONS: read-out: 5-HT2c Affinity KI
QUANTITY_MEASURED: Ki (nM)

1. CCN1CCc2c(Cl)ccc3c2N(CC1)C1CCCC31 (stereo not shown) [Example 21]    137
2. CN1CCc2c(Cl)ccc3c4c(n(c23)CC1)CCCCC4 [Example 14]    250
3. CN1CCc2c(Cl)ccc3c4c(n(c23)CC1)CCC4 [Example 12]    250
4. CN1CCc2cccc3c2N(CC1)C1CCSCC31 (stereo not shown) [Example 44]    1720
5. CN1CCc2c(Cl)ccc3c2N(CC1)C1CCCC31 (stereo not shown) [Example 15]    131
6. CCN1CCc2c(Cl)ccc3c2N(CC1)C1CCCCC31 (stereo not shown) [Example 23]    116
7. Clc1ccc2c3c1CCNCCN3C1CCCC21 (stereo not shown) [Example 20]    111
8. Clc1ccc2c3c(n4c2c1CCNCC4)CCC3 [Example 17]    156
9. CN1CCc2ccc(F)c3c2N(CC1)C1CCCC31 (stereo not shown) [Example 26]    176
10. Clc1ccc2c3c(n4c2c1CCNCC4)CCCCC3 [Example 19]    4970

* * *

Structures can show the parent of a compound that is named as a salt.
QUANTITY_MEASURED: melting point

1. c1cc2c3c(c1)[C@H]1CCCC[C@H]1N3CCNCC2 (single isomer, unassigned) (as salt: fumarate) [Example 47]    139 to 140 °C
2. Clc1ccc2c3c1[C@H]1CCCC[C@H]1N3CCNCC2 (single isomer, unassigned) (as salt: fumarate) [Example 42]    170 to 173 °C
3. CN1CCc2ccc(Cl)c3c2N(CC1)C1CCCC31 (stereo not shown) (as salt: fumarate) [Example 36]    179 to 181 °C
4. CN1CCc2c(Cl)ccc3c2N(CC1)C1CCCC31 (stereo not shown) (as salt: fumarate) [Example 15]    196 to 199 °C
